The reported measurements were obtained from patent US10098878B2.

# pIC50 per record follows
Target: HIF-2α HIS TAG-PASB Domain (Homo sapiens, UniProt Q99814)
Construct: 100 nM HIF-2α HIS TAG-PASB Domain
Sequence (Q99814 240-350 limits assumed): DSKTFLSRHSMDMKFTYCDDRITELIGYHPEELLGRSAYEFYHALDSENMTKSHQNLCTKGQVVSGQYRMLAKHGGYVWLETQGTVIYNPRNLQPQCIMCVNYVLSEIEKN
Test: HIF-2α Scintillation Proximity Assay (SPA)
Assay type: binding
Settings: 150 nM Compound 211 probe, 100 nM HIF-2α HIS TAG-PASB Domain; read-out: SPA IC50
# reply with the number alone; pIC50 is -log10 of concentration in mol/L

Example entries and their recorded answers appear below.
compound: N#CN=S1(=O)CC(O)c2c1ccc(Oc1cc(F)cc(F)c1)c2C(F)F (stereo not shown) [Compound 158]
experimental value: 5.83
//
compound: N#CN=S(=O)(c1ccc(Oc2cc(F)cc(C#N)c2)c2c1[C@H](O)[C@H](F)C2)C(F)F (single isomer, unassigned) [Compound 61]
experimental value: 4.91
//
compound: N#Cc1cncc(Oc2ccc(S(=N)(=O)C(F)(F)F)c3c2CC(F)(F)[C@H]3O)c1 (stereo partly shown) [Compound 78]
experimental value: 7.60
//
compound: CS(=O)(=O)c1ccc(Oc2cc(F)cc(C#N)c2)c2c1C(=O)C(F)(Cl)C2 (stereo not shown) [Compound 33]
experimental value: 6.51
//
compound: O=S(=O)(c1ccc(Oc2cc(F)c[n+]([O-])c2)c2c1[C@H](O)C(F)(F)C2)C(F)(F)F [Compound 74]
experimental value: 7.80

Summary for this compound, O=S1(=O)c2ccc(OCC3CC3)c(C(F)F)c2[C@@H](O)C1(F)F [Compound 203] : pIC50 is 5.72

Summary for this compound, N#Cc1cncc(Oc2ccc3c(c2Br)[C@@H](O)CS3(=O)=O)c1 [Compound 184] : pIC50 is 4.99

Summary for this compound, N#Cc1cc(F)cc(Oc2ccc3c(c2C(F)F)C(O)(C(F)(F)F)C(F)(F)S3(=O)=O)c1 (stereo not shown) [Compound 209] : pIC50 is 5.36

Summary for this compound, N#Cc1cc(F)cc(Oc2ccc(S(=O)(=O)C(F)(F)F)c3c2CC(F)(F)[C@H]3NCCO)c1 [Compound 55] : pIC50 is 5.31

Summary for this compound, N#Cc1c(Oc2cc(F)cc(F)c2)ccc2c1C(O)C(F)(F)S2(=O)=O (stereo not shown) [Compound 207] : pIC50 is 7.34

Summary for this compound, CS(=O)(=O)c1ccc(Oc2ccc(F)c(C#N)c2)c2c1[C@H](O)C(F)(F)[C@@H]2F [Compound 91] : pIC50 is 7.55

Summary for this compound, CC1(O)c2c(ccc(Oc3cc(F)cc(F)c3)c2Br)S(=O)(=O)C1(F)F (stereo not shown) [Compound 208] : pIC50 is 7.08

Summary for this compound, CS(=O)(=O)c1ccc(Oc2cncc(F)c2)c2c1[C@H](O)C(F)(F)[C@H]2F [Compound 94] : pIC50 is 5.68

Summary for this compound, CS(=O)(=NC#N)c1ccc(Oc2cncc(C#N)c2)c2c1[C@H](O)C(F)(F)[C@@H]2F (single isomer, unassigned) [Compound 83] : pIC50 is 7.85

Summary for this compound, CS(=O)(=O)c1ccc(Oc2cc(F)cc(C#N)c2)c2c1[C@H](N)C(F)(F)[C@@H]2F [Compound 110] : pIC50 is 6.29

Summary for this compound, CS(=O)(=O)c1ccc(Oc2cncc(Cl)c2)c2c1[C@H](O)C(F)(F)[C@H]2F [Compound 96] : pIC50 is 5.64
